Reference source: patent US6117975A

Target Of Assay: MC3 receptor (Homo sapiens)
Sequence (P41968 whole entry): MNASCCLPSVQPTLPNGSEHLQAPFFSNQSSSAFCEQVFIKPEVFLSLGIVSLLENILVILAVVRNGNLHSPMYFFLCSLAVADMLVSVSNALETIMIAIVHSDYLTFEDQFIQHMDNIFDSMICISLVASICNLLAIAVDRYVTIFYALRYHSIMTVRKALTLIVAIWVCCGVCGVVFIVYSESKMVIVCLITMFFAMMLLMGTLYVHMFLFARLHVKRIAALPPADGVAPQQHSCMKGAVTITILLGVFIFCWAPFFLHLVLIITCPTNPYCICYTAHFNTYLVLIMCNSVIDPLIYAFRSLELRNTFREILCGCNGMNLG
Experimental Details: cAMP generation in L-cells transfected with the MC3 receptor
Type: cell-based
Design: these were utilized to obtain full-length genomic clones by screening a genomic library; expressed in transfected cells; CMVneo vector
Experimental Context: read-out: ED50, cAMP generation
No end group written: not given here.
Quantity Name: EC50

Quote EC50 reported for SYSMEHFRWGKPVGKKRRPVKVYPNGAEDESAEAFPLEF [ACTH, ACTH(1-39)] please.
~1 nM

* * *

Target Of Assay: MC4 receptor (Homo sapiens)
Construct: expressed in transfected cells; host or cells: COS-1 (transient, lipofection); Hepa rat hepatoma; CMVneo vector
Sequence (P32245 whole entry): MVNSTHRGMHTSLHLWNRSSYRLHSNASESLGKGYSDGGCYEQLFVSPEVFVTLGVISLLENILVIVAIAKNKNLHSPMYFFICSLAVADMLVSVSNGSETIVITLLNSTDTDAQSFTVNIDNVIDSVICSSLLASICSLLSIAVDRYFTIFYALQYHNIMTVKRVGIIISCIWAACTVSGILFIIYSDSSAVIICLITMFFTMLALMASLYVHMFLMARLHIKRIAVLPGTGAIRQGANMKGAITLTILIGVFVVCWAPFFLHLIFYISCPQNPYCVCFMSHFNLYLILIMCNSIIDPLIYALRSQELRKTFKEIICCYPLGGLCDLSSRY
Experimental Details: cAMP generation in L-cells transfected with the MC4 receptor gene
Assay type: cell-based
Experimental Context: read-out: half-maximal effect (EC50), intracellular cAMP
No end group written: not given here.
Quantity Name: EC50 (nM)
Entry rule: numbers only, all in nM.

Quote EC50 reported for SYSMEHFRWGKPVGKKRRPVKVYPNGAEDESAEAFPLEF [ACTH, ACTH(1-39)] please.
1
